Tested on: DU 145, hormone-independent human prostate cancer cells
ASSAY: Proliferation assay, DU145
Format: cell-based
CONDITION_LABEL: DU-145, 96 h, 4 days incubation, crystal violet
pIC50: −log10 of the molar value.
MEASUREMENT_LABEL: pIC50

Examples with answers:
{"COMPOUND": "COc1cc(Nc2ncc(Br)c(N[C@H](C)[C@@H](C)O)n2)ccc1S(C)(=N)=O (single isomer, unassigned) [Example 1.26]", "READOUT_NUMBER": 7.15}
{"COMPOUND": "Cc1cc(Nc2ncc(Br)c(N[C@H](C)[C@@H](C)O)n2)ccc1S(C)(=N)=O (mixture of isomers) [Example 1.60]", "READOUT_NUMBER": 7.40}

[a] CCS(=N)(=O)c1ccc(Nc2ncc(Br)c(N[C@H](COC)[C@@H](C)O)n2)cc1 (mixture of isomers) [Example 1.48]
[b] C[C@@H](Nc1nc(Nc2ccc(S(C)(=N)=O)cc2)ncc1Br)C(C)(C)O (mixture of isomers) [Example 1.41]
Hi! Which is lower in terms of pIC50, the first one a or the second one b ? When you have decided, please share the label of that item.
a
(a: 6.40, b: 7.05)

###

SYSTEM_NAME: VEGF receptor tyrosine kinase-2 (Homo sapiens, UniProt P35968)
Construct: GST; made in house; host or cells: baculovirus-infected insect cells (Sf9)
Sequence (P35968 20-1356): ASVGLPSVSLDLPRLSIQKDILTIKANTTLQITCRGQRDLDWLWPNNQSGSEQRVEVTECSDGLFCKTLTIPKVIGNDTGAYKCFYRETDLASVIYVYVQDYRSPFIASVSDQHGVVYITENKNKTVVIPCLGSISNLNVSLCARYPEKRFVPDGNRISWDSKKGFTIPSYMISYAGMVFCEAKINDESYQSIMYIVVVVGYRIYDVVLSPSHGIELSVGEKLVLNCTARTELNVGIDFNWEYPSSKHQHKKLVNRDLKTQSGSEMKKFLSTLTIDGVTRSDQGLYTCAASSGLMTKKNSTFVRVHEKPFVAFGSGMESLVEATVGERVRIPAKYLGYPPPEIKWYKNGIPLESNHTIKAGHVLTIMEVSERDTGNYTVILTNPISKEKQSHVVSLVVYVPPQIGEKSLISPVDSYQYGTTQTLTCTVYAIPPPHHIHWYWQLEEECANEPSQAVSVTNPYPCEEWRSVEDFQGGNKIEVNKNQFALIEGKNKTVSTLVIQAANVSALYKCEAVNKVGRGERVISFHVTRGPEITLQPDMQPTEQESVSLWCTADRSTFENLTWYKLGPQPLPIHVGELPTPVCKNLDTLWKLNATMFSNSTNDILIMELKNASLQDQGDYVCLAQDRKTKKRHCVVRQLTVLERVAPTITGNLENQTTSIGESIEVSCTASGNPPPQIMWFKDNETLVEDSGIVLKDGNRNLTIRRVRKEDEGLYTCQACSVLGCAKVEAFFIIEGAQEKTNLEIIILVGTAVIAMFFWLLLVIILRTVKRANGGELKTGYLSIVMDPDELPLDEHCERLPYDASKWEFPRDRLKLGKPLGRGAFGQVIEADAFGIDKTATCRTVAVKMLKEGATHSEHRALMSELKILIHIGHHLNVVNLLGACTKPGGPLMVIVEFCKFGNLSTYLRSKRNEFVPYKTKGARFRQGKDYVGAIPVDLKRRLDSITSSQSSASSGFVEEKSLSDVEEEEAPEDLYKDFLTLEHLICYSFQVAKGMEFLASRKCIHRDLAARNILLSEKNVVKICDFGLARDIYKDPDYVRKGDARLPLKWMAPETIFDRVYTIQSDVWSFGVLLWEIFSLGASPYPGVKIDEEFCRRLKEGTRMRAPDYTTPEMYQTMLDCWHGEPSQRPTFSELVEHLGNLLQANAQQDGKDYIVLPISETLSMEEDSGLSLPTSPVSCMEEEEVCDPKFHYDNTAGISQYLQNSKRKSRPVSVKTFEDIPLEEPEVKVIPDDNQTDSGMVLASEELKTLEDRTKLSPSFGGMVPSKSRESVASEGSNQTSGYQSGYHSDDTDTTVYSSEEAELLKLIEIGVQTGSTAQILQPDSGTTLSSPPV
ASSAY: VEGF Receptor-2 Kinase Assay
Format: biochemical
CONDITION_LABEL: poly-(Glu4Tyr) substrate, 33P-ATP, 10 minutes at 22° C.; read-out: VEGF-R2 IC50
pIC50: −log10 of the molar value.
MEASUREMENT_LABEL: pIC50

{"MOLECULE": "C[C@H](CO)Nc1nc(Nc2ccc(S(C)(=O)=NS(=O)(=O)CC[Si](C)(C)C)cc2)ncc1Br (mixture of isomers) [Example 2.1]", "READOUT_NUMBER": 7.13}
{"MOLECULE": "Cc1cc(Nc2ncc(Br)c(N[C@H](C)C(C)(C)O)n2)ccc1S(C)(=N)=O (mixture of isomers) [Example 1.57]", "READOUT_NUMBER": 7.18}
{"MOLECULE": "C[C@@H](Nc1nc(Nc2ccc(S(=N)(=O)CCO)cc2)ncc1Br)C(C)(C)O (single isomer, unassigned) [Example 1.14]", "READOUT_NUMBER": 7.16}
{"MOLECULE": "CCOC(=O)N=S(C)(=O)c1ccc(Nc2ncc(Br)c(N[C@H](C)C(C)(C)O)n2)cc1 (mixture of isomers) [Example 1.31]", "READOUT_NUMBER": 6.85}

[a] Cc1cc(Nc2ncc(Br)c(N[C@H](C)C(C)(C)O)n2)ccc1S(C)(=N)=O (mixture of isomers) [Example 1.58]
[b] C[C@@H](O)[C@@H](C)Nc1nc(Nc2ccc(S(=O)(CCO)=NS(=O)(=O)CC[Si](C)(C)C)cc2)ncc1Br (mixture of isomers) [Example 1.16]
Form field 'greater pIC50' accepts a or b ; which applies? When you have decided, please share the label of that item.
a

###

MEASUREMENT_LABEL: melting point

Examples with answers:
{"COMPOUND": "CCC(C)Sc1nc(Nc2ccc(S(C)(=N)=O)cc2)ncc1Br (racemic)", "melting point": "175 to 183 °C"}
{"COMPOUND": "C[C@H](CO)Nc1nc(Nc2ccc(S(C)(=O)=NS(=O)(=O)CC[Si](C)(C)C)cc2)ncc1Br (mixture of isomers)", "melting point": "194 to 197 °C"}
{"COMPOUND": "CC(CO)Sc1nc(Nc2ccc(S(C)(=N)=O)cc2)ncc1Br (racemic)", "melting point": "218 to 220 °C"}
{"COMPOUND": "C[C@H](CO)Nc1nc(Nc2ccc(S(=O)(CC3CC3)=NS(=O)(=O)CC[Si](C)(C)C)cc2)ncc1Br (mixture of isomers)", "melting point": "195 °C (dec.)"}
{"COMPOUND": "CCC(CO)Sc1nc(Nc2ccc(S(C)(=N)=O)cc2)ncc1Br (racemic)", "melting point": "175 to 180 °C"}

Consider the record given below.
Tell me melting point reported for CC(Sc1nc(Nc2ccc(S(C)(=N)=O)cc2)ncc1Br)C(C)(C)O (racemic)
201 to 202 °C
